Origin of the recorded values: PubChem BioAssay (Tox21)

experimental_protocol: qHTS assay for small molecule disruptors of the mitochondrial membrane potential - cell viability (AID 720634); note: nearly all actives have a fitted effect of over 20% in size
condition_info: HepG2 viability, ATP luminescence (CellTiter-Glo), 1 h; series mostly up to 83.2 µM
Results filed as inconclusive are left out. Activity calls are given as the source filed them. Calls come from the whole dose curve.
One label from this list, please: active, inactive

CO[Si](OC)(OC)c1ccccc1
inactive
CCCCOCCOC(=O)c1ccccc1C(=O)OCCOCCCC
inactive
C=CC(=O)OCCCCCCOC(=O)C=C
inactive

Returns: the outcome recorded for "c1ccc2c(c1)-c1cccc3c1c-2cc1ccccc13" in this assay. active

I'd appreciate the recorded outcome for OCCOCCN1CCN(C(c2ccccc2)c2ccc(Cl)cc2)CC1 (stereo not given) from this test. inactive

So what was the verdict on "CC(=O)CC(C)=O" in this test? inactive
